target.system: human CGRP receptor (Homo sapiens, UniProt O60894+Q16602)
Construct: SK-N-MC cells that endogenously express the human CGRP receptor; endogenous in cells; host or cells: SK-N-MC cells (membrane homogenates)
measurement.notes: Radioligand binding assay, [125I]-CGRP competition on SK-N-MC cell homogenates
experimental.setup: Binding data, [125I]-CGRP 40 pM, room temperature
Threshold-based label: IC50 under 4 µM gives criterion met, IC50 not under 4 µM gives criterion not met.

q: Here's an entry: CSCC1C(=O)N(CCc2cccc(F)c2)C[C@@H]2N(C(=O)Nc3ccc(C(C)=O)cc3)CCC(=O)N12 (stereo in doubt) [Compound 37] . Is its IC50 below 4 µM?
a: criterion met

q: Here's an entry: CC(=O)c1ccc(NC(=O)N2CCC(=O)N3[C@@H](C4CCCCC4)C(=O)N(CCc4cccc(F)c4)C[C@H]23)cc1 [Compound 48] . Is its IC50 below 4 µM?
a: criterion met

q: Here's an entry: CSc1ccc(NC(=O)N2CCC(=O)N3[C@@H](C4CCCCC4)C(=O)N(CCc4ccccc4)C[C@H]23)cc1 [Compound 19] . Is its IC50 below 4 µM?
a: criterion not met

q: Here's an entry: CC(=O)c1ccc(OC(=O)N2CCC(=O)N3[C@@H]2CN(CCc2ccccc2)C(=O)[C@@H]3CC2CCCCC2)c(C)c1 [Compound 144] . Is its IC50 below 4 µM?
a: criterion not met

q: Here's an entry: CC(=O)c1ccc(NC(=O)N2CCC(=O)N3[C@@H](C4CCCCC4)C(=O)N(CCc4ccccc4Cl)C[C@H]23)cc1 [Compound 116] . Is its IC50 below 4 µM?
a: criterion met

----------
target.system: human CGRP receptor (Homo sapiens, UniProt O60894+Q16602)
Construct: SK-N-MC cells that endogenously express the human CGRP receptor; endogenous in cells
measurement.notes: Radioligand binding assay, [125I]-CGRP competition on SK-N-MC cell homogenates
experimental.setup: Binding data, [125I]-CGRP 40 pM, room temperature
So I've got a bunch of compounds here, and I need their pIC50 values.
// pIC50 is dimensionless: -log10 of concentration (M)

q: Give the value of pIC50 reported for the following: CC(=O)c1ccc(NC(=O)N2CCC(=O)N3C(CS(=O)(=O)Cc4ccccc4)C(=O)N(CCc4cccc(F)c4)C[C@H]23)cc1 (stereo in doubt)
a: 5.71

q: Give the value of pIC50 reported for the following: CC(O)c1ccc(NC(=O)N2CCC(=O)N3[C@@H]2CN(CCc2ccccc2)C(=O)[C@@H]3CC2CCCCC2)cc1 (stereo partly shown)
a: 5.56

q: Give the value of pIC50 reported for the following: CC(=O)c1ccc(NC(=O)N2CCC(=O)N3[C@@H]2CN(CCc2cccc(F)c2)C(=O)[C@@H]3CCCCNC(=O)OCc2ccccc2)cc1
a: 5.98

q: Give the value of pIC50 reported for the following: CC(=O)c1ccc(NC(=O)N2CCC(=O)N3[C@@H](C4CCOCC4)C(=O)N(CCc4cccc(F)c4)C[C@H]23)cc1
a: 6.45

q: Give the value of pIC50 reported for the following: CC(=O)c1ccc(NC(=O)N2CCC(=O)N3[C@@H]2CN(CCc2cccc(F)c2)C(=O)[C@@H]3CC2CCCCC2)cc1
a: 6.73

q: Give the value of pIC50 reported for the following: CC(=O)c1ccc(NC(=O)N2CCC(=O)N3[C@@H](C4CCCCC4)C(=O)N(CCc4cccnc4)C[C@H]23)cc1
a: 5.61

q: Give the value of pIC50 reported for the following: CC(=O)c1ccc(NC(=O)N2CCC(=O)N3[C@@H]2CN(CCc2cccc(F)c2)C(=O)[C@@H]3Cc2ccc(F)cc2)cc1
a: 6.09

q: Give the value of pIC50 reported for the following: CC(=O)c1ccc(NC(=O)N2CCC(=O)N3[C@@H]2CN(CCc2cccc(F)c2)C(=O)[C@@H]3CC(=O)OCc2ccccc2)cc1
a: 5.66

q: Give the value of pIC50 reported for the following: CC(=O)c1ccc(NC(=O)N2CCC(=O)N3[C@@H](C4CCNCC4)C(=O)N(CCc4cccc(F)c4)C[C@H]23)cc1
a: 5.40

q: Give the value of pIC50 reported for the following: CC(=O)c1ccc(NC(=O)N2CCC(=O)N3[C@@H]2CN(CCc2cccc(F)c2)C(=O)[C@@H]3CC[S+](C)[O-])cc1 (mixture of isomers)
a: 6.11

q: Give the value of pIC50 reported for the following: CC(=O)c1ccc(NC(=O)N2CCC(=O)N3[C@@H](c4ccccc4)C(=O)N(CCc4cccc(F)c4)C[C@H]23)cc1
a: 6.78

q: Give the value of pIC50 reported for the following: CC(=O)c1ccc(NC(=O)N2CCC(=O)N3[C@@H](C4CCCCC4)C(=O)N(CCc4ccncc4)C[C@H]23)cc1
a: 5.10

q: Give the value of pIC50 reported for the following: CC(=O)c1ccc(NC(=O)N2CCC(=O)N3[C@@H](C4CCCCC4)C(=O)N(CCc4cccc(Cl)c4)C[C@H]23)cc1
a: 5.15

----------
target.system: human CGRP receptor (Homo sapiens, UniProt O60894+Q16602)
Construct: SK-N-MC cells that endogenously express the human CGRP receptor; endogenous in cells
measurement.notes: Radioligand binding assay, [125I]-CGRP competition on SK-N-MC cell homogenates
experimental.setup: Binding data, [125I]-CGRP 40 pM, room temperature
So I've got a bunch of compounds here, and I need their pIC50 values.
// pIC50 is dimensionless: -log10 of concentration (M)

q: Give the value of pIC50 reported for the following: CC(=O)c1ccc(OC(=O)N2CCC(=O)N3[C@@H](C4CCCCC4)C(=O)N(CCc4ccccc4)C[C@H]23)cc1
a: 5.07

q: Give the value of pIC50 reported for the following: CS(=O)(=O)c1ccc(NC(=O)N2CCC(=O)N3[C@@H](C4CCCCC4)C(=O)N(CCc4ccccc4)C[C@H]23)cc1
a: 6.38

q: Give the value of pIC50 reported for the following: C[S+]([O-])c1ccc(NC(=O)N2CCC(=O)N3[C@@H](C4CCCCC4)C(=O)N(CCc4ccccc4)C[C@H]23)cc1 (stereo partly drawn)
a: 6.53

q: Give the value of pIC50 reported for the following: CC(=O)c1ccc(NC(=O)N2CCC(=O)N3[C@@H]2CN(CCc2cccc(F)c2)C(=O)[C@@H]3Cc2cc(Br)c(O)c(Br)c2)cc1
a: 5.93

q: Give the value of pIC50 reported for the following: CC(=O)c1ccc(NC(=O)N2CCC(=O)N3[C@@H]2CN(CCc2cccc(F)c2)C(=O)[C@@H]3CCS(C)(=O)=O)cc1
a: 6.46

q: Give the value of pIC50 reported for the following: CC(=O)c1ccc(OC(=O)N2CCC(=O)N3[C@@H]2CN(CCc2ccccc2)C(=O)[C@@H]3CC2CCCCC2)cc1C
a: 6.44

----------
So I've got a bunch of molecules here, and I need their pIC50 values.
target.system: human CGRP receptor (Homo sapiens, UniProt O60894+Q16602)
Construct: SK-N-MC cells that endogenously express the human CGRP receptor; endogenous in cells
measurement.notes: Radioligand binding assay, [125I]-CGRP competition on SK-N-MC cell homogenates
experimental.setup: Binding data, [125I]-CGRP 40 pM, room temperature
// pIC50 is dimensionless: -log10 of concentration (M)

q: Give the value of pIC50 reported for the following: CC(=O)c1ccc(NC(=O)N2CCC(=O)N3[C@@H]2CN(CCc2cccc(F)c2)C(=O)[C@@H]3Cc2cncn2C)cc1
a: 5.90

q: Give the value of pIC50 reported for the following: CC(=O)c1ccc(NC(=O)N2CCC(=O)N3[C@@H]2CN(CCc2cccc(F)c2)C(=O)[C@@H]3Cc2cc(F)c(F)c(F)c2)cc1
a: 6.18

q: Give the value of pIC50 reported for the following: CC(=O)c1ccc(NC(=O)N2CCC(=O)N3[C@@H]2CN(CCc2ccccc2)C(=O)[C@@H]3CC2CCCCC2)cc1
a: 6.29

----------
target.system: human CGRP receptor (Homo sapiens, UniProt O60894+Q16602)
Construct: SK-N-MC cells that endogenously express the human CGRP receptor; endogenous in cells
measurement.notes: Radioligand binding assay, [125I]-CGRP competition on SK-N-MC cell homogenates
experimental.setup: Binding data, [125I]-CGRP 40 pM, room temperature
measure: log10 IC50 (log10 of the value in nM)
Field: value | Transform: log10 | Quantity: IC50 | Unit: nM

q: Give the value of log10 IC50 reported for the following: CC(=O)c1ccc(NC(=O)N2CCC(=O)N3[C@@H](c4ccc(F)c(F)c4)C(=O)N(CCc4cccc(F)c4)C[C@H]23)cc1 [Compound 151]
a: 1.59

q: Give the value of log10 IC50 reported for the following: CC(=O)c1ccc(NC(=O)N2CCC(=O)N3[C@@H](c4cccc(F)c4)C(=O)N(CCc4cccc(F)c4)C[C@H]23)cc1 [Compound 152]
a: 2.20

q: Give the value of log10 IC50 reported for the following: CC(=O)c1ccc(NC(=O)N2CCC(=O)N3[C@@H](c4ccccc4)C(=O)N(CCc4ccccc4)C[C@H]23)cc1 [Compound 64]
a: 2.67

q: Give the value of log10 IC50 reported for the following: CC(=O)c1ccc(NC(=O)N2CCC(=O)N3[C@@H](c4ccc(F)cc4F)C(=O)N(CCc4cccc(F)c4)C[C@H]23)cc1 [Compound 153]
a: 2.51

q: Give the value of log10 IC50 reported for the following: CC(=O)c1ccc(NC(=O)N2CCC(=O)N3C(C[S+]([O-])Cc4ccccc4)C(=O)N(CCc4cccc(F)c4)C[C@H]23)cc1 (stereo in doubt) [Compound 44]
a: 3.54
